Target: UniProtKB Q02318
Sequence (Q02318 whole entry): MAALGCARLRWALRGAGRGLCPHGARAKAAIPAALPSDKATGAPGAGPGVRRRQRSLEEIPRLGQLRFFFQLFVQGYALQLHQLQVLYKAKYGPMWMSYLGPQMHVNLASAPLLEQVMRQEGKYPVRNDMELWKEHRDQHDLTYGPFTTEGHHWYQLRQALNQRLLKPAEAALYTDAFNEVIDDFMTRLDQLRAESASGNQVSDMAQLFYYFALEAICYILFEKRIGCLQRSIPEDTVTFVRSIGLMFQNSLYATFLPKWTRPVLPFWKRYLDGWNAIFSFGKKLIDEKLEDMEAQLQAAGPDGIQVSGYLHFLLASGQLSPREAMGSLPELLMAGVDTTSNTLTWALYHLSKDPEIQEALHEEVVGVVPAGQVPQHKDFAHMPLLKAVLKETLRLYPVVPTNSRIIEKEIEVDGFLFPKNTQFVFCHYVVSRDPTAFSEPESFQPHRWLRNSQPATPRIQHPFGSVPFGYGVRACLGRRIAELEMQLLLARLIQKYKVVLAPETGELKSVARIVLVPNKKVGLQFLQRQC
pIC50: −log10 of the molar value.
observed.property: pIC50

What value of measured pIC50 is listed for C=C1/C(=C\C=C2/CCC[C@]3(C)C([C@H](C)CC[S+](=N)([O-])c4ccccc4)=CCC23)C[C@@H](O)C[C@@H]1O (stereo partly specified) ?
< 6.00

----------
Target: UniProt Q07973
Sequence (Q07973 whole entry): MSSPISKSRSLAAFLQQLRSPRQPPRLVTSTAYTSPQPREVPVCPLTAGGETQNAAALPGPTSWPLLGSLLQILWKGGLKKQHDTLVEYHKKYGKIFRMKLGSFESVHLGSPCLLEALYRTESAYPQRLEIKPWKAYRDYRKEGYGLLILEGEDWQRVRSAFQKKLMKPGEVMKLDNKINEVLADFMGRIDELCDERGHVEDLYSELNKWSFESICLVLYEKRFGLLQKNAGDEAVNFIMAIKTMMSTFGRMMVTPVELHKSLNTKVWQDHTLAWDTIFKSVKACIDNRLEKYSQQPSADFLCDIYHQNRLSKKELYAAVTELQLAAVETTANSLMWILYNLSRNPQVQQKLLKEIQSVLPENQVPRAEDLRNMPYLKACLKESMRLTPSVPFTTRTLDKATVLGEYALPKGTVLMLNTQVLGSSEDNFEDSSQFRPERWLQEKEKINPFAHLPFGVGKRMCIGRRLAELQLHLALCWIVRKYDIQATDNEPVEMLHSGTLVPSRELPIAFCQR
Test: Inhibition of CYP24 in human keratinocytes
Format: cell-based
observed.property: IC50 (µM)
Give bare numbers, in µM.

Entry under review: O=C(NCC(c1ccccc1)n1ccnc1)c1ccc(-c2ccc(Cl)cc2)cc1 (stereo unspecified) . Reported IC50?
0.015

----------
Biological target: 25-hydroxyvitamin D-1 alpha hydroxylase, mitochondrial (Homo sapiens, UniProt O15528)
Sequence (O15528 whole entry): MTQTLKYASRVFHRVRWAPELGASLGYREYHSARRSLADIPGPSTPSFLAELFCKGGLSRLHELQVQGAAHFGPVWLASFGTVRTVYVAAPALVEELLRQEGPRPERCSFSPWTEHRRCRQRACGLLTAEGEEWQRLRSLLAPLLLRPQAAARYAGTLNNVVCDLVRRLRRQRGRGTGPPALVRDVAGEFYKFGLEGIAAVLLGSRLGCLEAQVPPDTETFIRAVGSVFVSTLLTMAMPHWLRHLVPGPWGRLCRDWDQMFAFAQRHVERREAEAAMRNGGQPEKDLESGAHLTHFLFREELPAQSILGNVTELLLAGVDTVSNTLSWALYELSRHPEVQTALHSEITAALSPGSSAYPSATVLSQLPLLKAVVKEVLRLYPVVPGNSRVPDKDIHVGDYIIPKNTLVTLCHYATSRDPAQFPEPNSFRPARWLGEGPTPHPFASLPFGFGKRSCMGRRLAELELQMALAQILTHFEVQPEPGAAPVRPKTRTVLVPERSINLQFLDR
Assay: Inhibition of CYP27B1 in human keratinocytes
Format: cell-based
observed.property: IC50 (µM)
One number for each entry, in µM.

Param item = O=C(NCC(c1ccccc1)n1ccnc1)c1ccc(-c2ccc(Cl)cc2)cc1 (stereo unspecified) ; retrieve measured IC50.
0.616

----------
Target: Cytochrome P450 1B1 (Homo sapiens)
Sequence (Q16678 whole entry): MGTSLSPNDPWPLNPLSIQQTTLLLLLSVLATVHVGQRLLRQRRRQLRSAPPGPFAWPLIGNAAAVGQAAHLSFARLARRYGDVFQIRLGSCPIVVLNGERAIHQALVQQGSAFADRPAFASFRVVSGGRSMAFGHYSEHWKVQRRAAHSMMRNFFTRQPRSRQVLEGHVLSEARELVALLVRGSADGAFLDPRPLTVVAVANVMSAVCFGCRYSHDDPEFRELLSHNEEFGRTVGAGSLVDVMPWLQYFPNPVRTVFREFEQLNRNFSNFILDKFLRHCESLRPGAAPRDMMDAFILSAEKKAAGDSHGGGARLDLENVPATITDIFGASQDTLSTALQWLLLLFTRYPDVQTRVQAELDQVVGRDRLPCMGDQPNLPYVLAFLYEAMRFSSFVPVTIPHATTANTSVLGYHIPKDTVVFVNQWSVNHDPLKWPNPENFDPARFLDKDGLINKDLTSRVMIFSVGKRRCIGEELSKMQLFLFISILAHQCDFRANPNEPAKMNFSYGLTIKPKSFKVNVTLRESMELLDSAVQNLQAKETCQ
observed.property: pIC50
One number for each entry, as −log10 of the molar value.

So what's the measured pIC50 for this one? `Clc1ccc(-c2cc(Cl)c(Cl)c(Cl)c2)cc1Cl`
7.96

What do you have for `c1cc2ccc3cccc4ccc(c1)c2c34` ?
8.70

Now give it for `CC#Cc1ccc2c(ccc3ccccc32)c1` too.
7.52

Others:
Suppose we examine the molecule `COc1cc(/C=C\c2cccs2)cc(OC)c1` ; what pIC50 value has been reported?
8.70
